# Organism: Homo sapiens
# assayOverview: Selectivity index, ratio of Ki for human delta opioid receptor to human mu opioid receptor
measurementType: Ratio Ki

COc1cccc2c1O[C@H]1CCC[C@H]3CN(CC4CC4)CC[C@@]231 (stereo in doubt; (-)-3b); 18
COc1cccc2c1O[C@H]1CCC[C@H]3CN(CCc4ccccc4)CC[C@@]231 (stereo in doubt; (+)-3c); 58
COc1cccc2c1O[C@H]1CCC[C@H]3CN(C)CC[C@@]231 (stereo in doubt; (-)-3a); 41
Oc1cccc2c1O[C@H]1CCC[C@H]3CN(CC4CC4)CC[C@@]231 (stereo in doubt; (-)-1b); 25

###

# assaySystem: Sigma non-opioid intracellular receptor 1 (Rattus norvegicus, UniProt Q9R0C9)
# Sequence (Q9R0C9 whole entry): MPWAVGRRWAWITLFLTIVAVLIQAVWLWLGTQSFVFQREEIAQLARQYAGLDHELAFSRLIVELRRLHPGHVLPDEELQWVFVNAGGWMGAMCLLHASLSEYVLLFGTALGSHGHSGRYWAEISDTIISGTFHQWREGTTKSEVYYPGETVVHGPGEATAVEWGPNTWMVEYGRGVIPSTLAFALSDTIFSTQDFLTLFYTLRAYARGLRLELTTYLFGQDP
# assayOverview: Displacement of [3H](+)-pentazocine from sigma1 receptor in rat brain homogenate
measurementType: Ki (µM)

COc1cccc2c1O[C@H]1CCC[C@H]3CN(CCc4ccccc4)CC[C@@]231 (stereo in doubt; (+)-3c); 0.278
Oc1cccc2c1O[C@H]1CCC[C@H]3CN(CCc4ccccc4)CC[C@@]231 (stereo in doubt; (-)-1c); 0.239
COc1cccc2c1O[C@H]1CCC[C@H]3CN(CC4CC4)CC[C@@]231 (stereo in doubt; (+)-3b); 0.062
Oc1cccc2c1O[C@H]1CCC[C@H]3CN(CCc4ccccc4)CC[C@@]231 (stereo in doubt; (+)-1c); 0.131
Oc1cccc2c1O[C@H]1CCC[C@H]3CN(CC4CC4)CC[C@@]231 (stereo in doubt; (-)-1b); 0.399

###

# assayOverview: Displacement of [3H]di-O-tolyguanidine from sigma2 receptor in rat brain homogenate
# Format: tissue-based
Output met for records whose Ki is lower than 4 µM, not met for records at or above 4 µM.

COc1cccc2c1O[C@H]1CCC[C@H]3CN(C)CC[C@@]231 (stereo in doubt; (+)-3a); not met
COc1cccc2c1O[C@H]1CCC[C@H]3CN(CC4CC4)CC[C@@]231 (stereo in doubt; (+)-3b); not met
CN1CC[C@]23c4cccc(O)c4O[C@H]2CCC[C@H]3C1 (stereo in doubt; (-)-1a); not met
COc1cccc2c1O[C@H]1CCC[C@H]3CN(CC4CC4)CC[C@@]231 (stereo in doubt; (-)-3b); met
COc1cccc2c1O[C@H]1CCC[C@H]3CN(C)CC[C@@]231 (stereo in doubt; (-)-3a); not met
Oc1cccc2c1O[C@H]1CCC[C@H]3CN(CC4CC4)CC[C@@]231 (stereo in doubt; (+)-1b); met
Oc1cccc2c1O[C@H]1CCC[C@H]3CN(CCc4ccccc4)CC[C@@]231 (stereo in doubt; (+)-1c); met

###

# assaySystem: Mu-type opioid receptor (Homo sapiens, UniProt P35372)
# Sequence (P35372 whole entry): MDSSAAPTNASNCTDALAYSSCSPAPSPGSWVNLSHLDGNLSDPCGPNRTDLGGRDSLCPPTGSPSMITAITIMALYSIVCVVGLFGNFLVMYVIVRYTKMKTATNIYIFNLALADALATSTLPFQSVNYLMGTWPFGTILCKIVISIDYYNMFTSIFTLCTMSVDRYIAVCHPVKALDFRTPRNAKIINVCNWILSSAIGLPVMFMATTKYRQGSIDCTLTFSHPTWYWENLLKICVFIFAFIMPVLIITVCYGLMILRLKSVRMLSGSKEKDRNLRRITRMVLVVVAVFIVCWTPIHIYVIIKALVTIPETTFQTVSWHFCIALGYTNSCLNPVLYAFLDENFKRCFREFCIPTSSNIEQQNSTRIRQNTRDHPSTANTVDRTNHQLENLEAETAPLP
Sorting guide: entries reporting Ki beneath 30 nM go in the criterion met pile, the rest go in the criterion not met pile.

COc1cccc2c1O[C@H]1CCC[C@H]3CN(CCc4ccccc4)CC[C@@]231 (stereo in doubt; (+)-3c); criterion not met
Oc1cccc2c1O[C@H]1CCC[C@H]3CN(CCc4ccccc4)CC[C@@]231 (stereo in doubt; (+)-1c); criterion not met
COc1cccc2c1O[C@H]1CCC[C@H]3CN(C)CC[C@@]231 (stereo in doubt; (-)-3a); criterion not met
Oc1cccc2c1O[C@H]1CCC[C@H]3CN(CCc4ccccc4)CC[C@@]231 (stereo in doubt; (-)-1c); criterion met
COc1cccc2c1O[C@H]1CCC[C@@H]3CN(C)CC[C@@]231 (stereo in doubt; (-)-4); criterion met
COc1cccc2c1O[C@H]1CCC[C@@H]3CN(C)CC[C@@]231 (stereo in doubt; (+)-4); criterion not met
